The origin of these recorded values is paper PMC10397247.

Target: T1, 4H3606-bH
T1 chain: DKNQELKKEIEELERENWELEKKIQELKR
Test: two-hybrid library CCNG1;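 note: natural log of median RNA to DNA barcode read ratio; higher means stronger binding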
metric: interaction score

Solved cases (2 shown):
binder: DENQELEKKNEELERKIWELEKKIQELKR [4H1446-bH]
interaction score: -0.704
--
binder: DKIQELKKENEELEREIWELKKEIQELER [4H2697-bH]
interaction score: -1.34

a = DEIQELEKKIEELKREIWELKKENQELER [4H331-bH]
b = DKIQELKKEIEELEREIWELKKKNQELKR [4H2576-bH]
Q: Given the listed records, identify the one among a and b with higher interaction score. Use the label to indicate which entry you chose.
Result: a
(a: 0.467, b: -2.37)
